Below: a set of entries, each annotated with reported log10 OH rate constant (cm³/molecule/s).
Conditions: 25.0 °C
Please give only the number in your answer, with no unit.

CCOC(=O)NC :: -11.1
CCNC(=O)OC :: -11
FC(F)C(F)(F)C(F)(F)C(F)F :: -14.3
C=CC(C)(C)O :: -10.2
CC(C)(C)Cl :: -12.4

Reported log10 OH rate constant (cm³/molecule/s) ( O=CC(F)(Cl)Cl ) = -11.9

---

Would you mind labelling by logP? At or over 2 is satisfied, under is not satisfied.

NS(=O)(=O)c1cccc2ccccc12 :: not satisfied

Could you now consider this next compound?
In: Is logP for O=C(O)CCCC(=O)c1ccc(-c2ccccc2)cc1 at or above 2?
Out: satisfied
